# Test system: RARa homodimer (NR concentration 270 nM)
# Procedure details: PBM binding z-score (relative to random genomic background probes); higher = stronger binding; sequences stand for … in GC…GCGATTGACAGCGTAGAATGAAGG
Consider the following sequences; for each one, report its PBM binding z-score.
Please respond with just the number, no unit label.

-- ask For `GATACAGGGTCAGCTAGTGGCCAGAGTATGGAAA` , write its PBM binding z-score.
-- reply -0.0625

-- ask For `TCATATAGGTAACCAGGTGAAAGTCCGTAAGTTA` , write its PBM binding z-score.
-- reply 0.583

-- ask For `TTACCAATGTGAAAGGTCGTTGATGCACGCCTTG` , write its PBM binding z-score.
-- reply 0.219

-- ask For `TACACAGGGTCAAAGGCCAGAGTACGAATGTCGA` , write its PBM binding z-score.
-- reply 0.487

-- ask For `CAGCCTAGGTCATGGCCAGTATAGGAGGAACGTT` , write its PBM binding z-score.
-- reply 0.132

-- ask For `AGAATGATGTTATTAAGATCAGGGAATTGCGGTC` , write its PBM binding z-score.
-- reply 0.841

-- ask For `ATCTCTAGGTAAGACTCAGTTCAGTGAGGAACGC` , write its PBM binding z-score.
-- reply 0.359

-- ask For `CCTATTAGTTGACCATAAGGGCAACTGAAGCTCG` , write its PBM binding z-score.
-- reply 1.39

-- ask For `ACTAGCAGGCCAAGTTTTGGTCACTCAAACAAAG` , write its PBM binding z-score.
-- reply -0.612

-- ask For `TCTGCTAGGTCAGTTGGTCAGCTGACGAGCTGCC` , write its PBM binding z-score.
-- reply -1.43

-- ask For `TCCTATAGGTAAATGCTAGGTGAAAGTCCGATCT` , write its PBM binding z-score.
-- reply 0.208

-- ask For `ATATGTAGGTTAGCTGGGGTCATTCATACTAGGC` , write its PBM binding z-score.
-- reply 2.13

====

# System: PPARg homodimer (NR concentration 180 nM)
# Procedure details: PBM binding z-score (relative to random genomic background probes); higher = stronger binding; sequences stand for … in GC…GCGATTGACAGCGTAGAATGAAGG
PBM binding z-score below 2 gives NOT MET; PBM binding z-score at or above it gives MET.

-- ask Check this sequence for PBM binding z-score at or above 2: `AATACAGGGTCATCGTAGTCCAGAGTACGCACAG`
-- reply MET

-- ask Check this sequence for PBM binding z-score at or above 2: `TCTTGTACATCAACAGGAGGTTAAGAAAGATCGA`
-- reply NOT MET

-- ask Check this sequence for PBM binding z-score at or above 2: `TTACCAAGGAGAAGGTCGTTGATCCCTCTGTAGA`
-- reply NOT MET

-- ask Check this sequence for PBM binding z-score at or above 2: `ATCTCTAGGTAAAAGTTCAGTGCATCCCGAGGAT`
-- reply NOT MET

-- ask Check this sequence for PBM binding z-score at or above 2: `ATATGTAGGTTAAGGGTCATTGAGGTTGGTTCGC`
-- reply MET

-- ask Check this sequence for PBM binding z-score at or above 2: `CCTCGGAGTACAGAAGGTCAGAGCTGTCCGCTTT`
-- reply NOT MET

====

# Test system: PPARg:RXRa DBDmut IVT, anti-RXR (DBD mutation: RXRa K156A/R161A, NR concentration 270 nM, RXRa partner concentration 90 nM)
# Procedure details: PBM binding z-score (relative to random genomic background probes); higher = stronger binding; sequences stand for … in GC…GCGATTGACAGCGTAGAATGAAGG
PBM binding z-score below 2 gives Not met; PBM binding z-score at or above it gives Met.

-- ask Check this sequence for PBM binding z-score at or above 2: `ACTCCGAGGACAAAGGTCAGAGCTACGCCAGTGA`
-- reply Not met

-- ask Check this sequence for PBM binding z-score at or above 2: `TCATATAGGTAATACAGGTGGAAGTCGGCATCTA`
-- reply Met

-- ask Check this sequence for PBM binding z-score at or above 2: `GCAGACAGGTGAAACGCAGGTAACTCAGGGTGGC`
-- reply Not met

-- ask Check this sequence for PBM binding z-score at or above 2: `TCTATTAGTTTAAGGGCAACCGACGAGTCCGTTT`
-- reply Met

-- ask Check this sequence for PBM binding z-score at or above 2: `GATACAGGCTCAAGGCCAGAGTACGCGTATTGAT`
-- reply Not met

-- ask Check this sequence for PBM binding z-score at or above 2: `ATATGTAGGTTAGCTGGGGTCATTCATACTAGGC`
-- reply Met

-- ask Check this sequence for PBM binding z-score at or above 2: `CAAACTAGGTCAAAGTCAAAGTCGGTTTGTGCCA`
-- reply Met

-- ask Check this sequence for PBM binding z-score at or above 2: `CCTAGCAGCCCAGGGTCACTCAAGCATTTCGCTT`
-- reply Not met

-- ask Check this sequence for PBM binding z-score at or above 2: `TCGAGTAGTTTACCAATGGGGCATTCAGCTTTCT`
-- reply Not met

-- ask Check this sequence for PBM binding z-score at or above 2: `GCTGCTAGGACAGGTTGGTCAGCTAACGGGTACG`
-- reply Not met

-- ask Check this sequence for PBM binding z-score at or above 2: `TGTCAAAGTTAAAAGGTAACGTAAGTATCCACAC`
-- reply Not met

-- ask Check this sequence for PBM binding z-score at or above 2: `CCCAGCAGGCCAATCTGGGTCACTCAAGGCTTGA`
-- reply Met

-- ask Check this sequence for PBM binding z-score at or above 2: `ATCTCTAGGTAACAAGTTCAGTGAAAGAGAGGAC`
-- reply Met

-- ask Check this sequence for PBM binding z-score at or above 2: `ACTTGCAGGCCAAGGGTCACTCAAGATTAGTCCG`
-- reply Met

-- ask Check this sequence for PBM binding z-score at or above 2: `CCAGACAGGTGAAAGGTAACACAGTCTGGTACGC`
-- reply Met

-- ask Check this sequence for PBM binding z-score at or above 2: `CGGACTAGGTCATTGACAGGACAGTGAATAGTAA`
-- reply Met

-- ask Check this sequence for PBM binding z-score at or above 2: `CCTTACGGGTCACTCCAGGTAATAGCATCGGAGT`
-- reply Met

-- ask Check this sequence for PBM binding z-score at or above 2: `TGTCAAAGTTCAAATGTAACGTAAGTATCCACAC`
-- reply Not met

-- ask Check this sequence for PBM binding z-score at or above 2: `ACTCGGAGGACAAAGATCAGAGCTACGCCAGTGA`
-- reply Not met

-- ask Check this sequence for PBM binding z-score at or above 2: `CCTGCTAGGTGAATGGTCAGCTAAAGCAGCTCGC`
-- reply Met

-- ask Check this sequence for PBM binding z-score at or above 2: `TTACCAAGGTGAGCTGAGGTCGTTTATCCAACTC`
-- reply Not met

-- ask Check this sequence for PBM binding z-score at or above 2: `CCTAGTTCGTCAGGAGGTCACACACCGGATATGA`
-- reply Not met

-- ask Check this sequence for PBM binding z-score at or above 2: `ATCTCTAGGTAACAAAGTTCAGTGAATGCCGAAC`
-- reply Met

-- ask Check this sequence for PBM binding z-score at or above 2: `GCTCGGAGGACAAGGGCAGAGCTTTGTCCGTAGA`
-- reply Not met

-- ask Check this sequence for PBM binding z-score at or above 2: `ATCGAAAGGACGAGGTGAGTATAGAGAAAGGGAA`
-- reply Not met

-- ask Check this sequence for PBM binding z-score at or above 2: `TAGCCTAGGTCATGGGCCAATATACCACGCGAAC`
-- reply Not met

Reference source: the supplement of paper PMC6555819
